Recorded amyloid nucleation score by entry
# test.summary: amyloid nucleation score (Sup35N fusion, yeast selection) (log enrichment); library NNK1; higher = more nucleation; inactive = no reads after selection;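 further: zero at mode of non-aggregating sequences after 7 days selection at 30°C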
Number, no unit, nothing else.

Below: 3 substances and their reported amyloid nucleation score.
LDWHKLRDWVKLGW
-0.255
RVILARHHPDDCMGLR
-0.26
MKLMKPGTLSSWCFFDSSGV
0.016

Any idea what its amyloid nucleation score is? The substance is MSSIKQY
-1.07

Another substance to check: CLNSHFGKNISNLFVCDLVC
0.484

Another substance to check: RMVNKTECTRRRIITTSNWI
0.869

Another substance to check: FLWDNAVSKVKFITFVWPHI
0.86

Another substance to check: YAALVHTHLKDYEISIYVIN
0.988
